Values from patent US20210380703A1

Assayed target: ACVR2A on primary human myotubes (human, UniProt P27037 20-513)
Sequence (P27037 20-513): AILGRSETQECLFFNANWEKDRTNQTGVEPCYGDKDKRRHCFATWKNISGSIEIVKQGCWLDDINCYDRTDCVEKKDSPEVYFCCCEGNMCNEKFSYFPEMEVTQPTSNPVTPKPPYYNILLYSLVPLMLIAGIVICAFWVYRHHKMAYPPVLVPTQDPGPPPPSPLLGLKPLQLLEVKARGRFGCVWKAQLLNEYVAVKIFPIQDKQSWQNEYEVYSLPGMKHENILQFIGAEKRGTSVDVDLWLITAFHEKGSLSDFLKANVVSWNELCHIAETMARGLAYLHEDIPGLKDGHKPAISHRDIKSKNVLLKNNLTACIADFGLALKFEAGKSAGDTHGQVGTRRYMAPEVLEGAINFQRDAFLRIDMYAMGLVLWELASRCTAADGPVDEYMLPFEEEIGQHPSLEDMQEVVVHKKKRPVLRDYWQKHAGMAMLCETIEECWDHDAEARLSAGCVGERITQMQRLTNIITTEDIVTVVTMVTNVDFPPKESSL
Run description: cell-based or functional assay
Recorded measurements of Phospho-SMAD3 Human Skeletal Muscle GDF8, one per entry
Reply with the value as a number alone.

Example entries begin here.
{"Binder": "370_A12 (antibody, V domains shown) VH: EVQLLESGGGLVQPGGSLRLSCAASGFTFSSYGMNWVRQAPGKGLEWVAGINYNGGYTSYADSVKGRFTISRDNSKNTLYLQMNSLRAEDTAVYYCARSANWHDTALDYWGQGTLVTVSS VL: DIQMTQSPSSLSASVGDRVTITCRASQSILTYLNWYQQKPGKAPKLLIYAATSLASGVPSRFSGSGSGTDFTLTISSLQPEDFATYYCQQSYDSPLTFGGGTKVEIK", "Phospho-SMAD3 Human Skeletal Muscle GDF8": 0.0632}
{"Binder": "374_E05 (antibody, V domains shown) VH: EVQLLESGGGLVQPGGSLRLSCAASGFTFSSYSMNWVRQAPGKGLEWVAGINYNGGYTSYADSVKGRFTISRDNSKNTLYLQMNSLRAEDTAVYYCARSANWHDTALDYWGQGTLVTVSS VL: DIQMTQSPSSLSASVGDRVTITCRASQSILSFVNWYQQKPGKAPKLVIYAATSRASGVPSRFSGSGSGTDFTLTISSLQPEDFATYYCQQSYNLPLTFGGGTKVEIK", "Phospho-SMAD3 Human Skeletal Muscle GDF8": 0.0497}
{"Binder": "372_A04 (antibody, V domains shown) VH: EVQLLESGGGLVQPGGSLRLSCAASGFTFDSYSMNWVRQAPGKGLEWVSGINYNSGYTSYADSVKGRFTISRDNSKNTLYLQMNSLRAEDTAVYYCARSANWHDTALDYWGQGTLVTVSS VL: DIQMTQSPSSLSASVGDRVTITCRASQSILTYLNWYQQKPGKAPKLVIYAATSRASGVPSRFSGSGSGTDFTLTISSLQPEDFATYYCQQSYETPLTFGGGTKVEIK", "Phospho-SMAD3 Human Skeletal Muscle GDF8": 0.0193}
{"Binder": "370_C03 (antibody, V domains shown) VH: EVQLLESGGGLVQPGGSLRLSCAASGFTFSSYGMNWVRQAPGKGLEWVAGINYNGGYKGYADSVKGRFTISRDNSKNTLYLQMNSLRAEDTAVYYCARSANWHDTALDYWGQGTLVTVSS VL: DIQMTQSPSSLSASVGDRVTITCRASQSILTYLNWYQQKPGKAPKLLIYYVTNRQSGVPSRFSGSGSGTDFTLTISSLQPEDFATYYCQQSYSSPLTFGGGTKVEIK", "Phospho-SMAD3 Human Skeletal Muscle GDF8": 0.0029}

Here is another binder to look at.
Identify Phospho-SMAD3 Human Skeletal Muscle GDF8 associated with the binder 372_F09 (antibody, V domains shown) VH: EVQLLESGGGLVQPGGSLRLSCAASGFTFDSYSMNWVRQAPGKGLEWVANINYNSGYKGYADSVKGRFTISRDNSKNTLYLQMNSLRAEDTAVYYCARSANWHDTALDYWGQGTLVTVSS VL: DIQMTQSPSSLSASVGDRVTITCRASQSILTYLNWYQQKPGKAPKLVIYAATSLASGVPSRFSGSGSGTDFTLTISSLQPEDFATYYCQQSYSSPLTFGGGTKVEIK
0.018
